- assay-protocol: Lethal dose (LD50) required to inhibit the spontaneous motor activity
- Assay type: toxicity, organism-based
- experimental-conditions: mouse, in vivo
This section presents compounds with their documented LD50 values.
parameter-measured: LD50

{"columns": ["structure-smiles", "parameter-measured", "meas-value"],
 "data": [
  ["CC(C)N(C(=O)CNC(=O)CN)c1ccc(Cl)cc1C(=O)c1ccccc1", "LD50", "> 1000 mg/kg"],
  ["NCC(=O)NCC(=O)Nc1ccc(Cl)cc1C(=O)c1ccccc1", "LD50", "> 1000 mg/kg"]
]}

----------
- assay-protocol: Lethal dose (LD50) required to inhibit the spontaneous motor activity.
- Assay type: toxicity, organism-based
- experimental-conditions: mouse, in vivo
This section presents molecules with their documented LD50 values.
parameter-measured: LD50 (mg/kg)

{"columns": ["molecule", "parameter-measured", "value-operator", "meas-value"],
 "data": [
  ["CN(C(=O)CNC(=O)CN)c1ccc(Cl)cc1C(=O)c1ccccc1", "LD50", "=", 750],
  ["CC(C)C(N)C(=O)NCC(=O)N(C)c1ccc(Cl)cc1C(=O)c1ccccc1Cl (stereo not given)", "LD50", "=", 750],
  ["CN(C(=O)CNC(=O)[C@H](N)Cc1ccccc1)c1ccc(Cl)cc1C(=O)c1ccccc1Cl", "LD50", ">", 1000],
  ["CC(C)C(N)C(=O)NCC(=O)Nc1ccc(Cl)cc1C(=O)c1ccccc1 (stereo not given)", "LD50", ">", 1000],
  ["CC(C)C(N)C(=O)NCC(=O)N(C)c1ccc(Cl)cc1C(=O)c1ccccc1 (stereo not given)", "LD50", ">", 1000]
]}
